biological target: UniProt P56817; test: In vitro enzymatic BACE FRET assay; type: biochemical; conditions: average IC50, enzyme assay; read-out: BACE1 FRET assay IC50
METRIC_NAME: pIC50
# reply with the number alone; pIC50 is -log10 of concentration in mol/L

Memo: CC1(C)C(N)=N[C@](C)(c2cc(Nc3nccc4cc(OCC5CC5)cnc34)ccc2F)CS1(=O)=O , reported pIC50: 8.42

Memo: CC1(C)C(N)=N[C@](C)(c2cc(C(=O)Nc3ccc(Cl)cc3)ccc2F)CS1(=O)=O , reported pIC50: 5.33

Memo: NC1=N[C@](CF)(c2cc(Nc3ncnc4cc(Cl)cnc34)ccc2F)CS(=O)(=O)C12CCC2 , reported pIC50: 8.77

====

For each of the compounds below, state its pIC50.
target: Beta Secretase enzyme (BACE1) (Homo sapiens); assay: In vitro enzymatic BACE FRET assay; assay type: biochemical; settings: average IC50, enzyme assay; read-out: BACE1 FRET assay IC50
# reply with the number alone; pIC50 is -log10 of concentration in mol/L

Memo: Cc1cc(OC(F)F)cnc1C(=O)Nc1ccc(F)c([C@@]2(C)N=C(N)C(C)(C)S(=O)(=O)C23CC3)c1 [Example 341] , reported pIC50: 8.22

Memo: Cc1cc(C#N)cnc1C(=O)Nc1ccc(F)c([C@]2(CF)CS(=O)(=O)C3(CCC3)C(N)=N2)c1 [Example 368] , reported pIC50: 9.19

Memo: CC1(C)C(N)=N[C@](C)(c2cc(NC(=O)c3cc4ccccc4cn3)ccc2F)CS1(=O)=O [Example 343] , reported pIC50: 8.29

====

molecular target: Cathepsin D (Cat D) (Homo sapiens); construct: Recombinant Cat D was expressed in CHO cells; made in house; host or cells: CHO cells; test: In vitro enzymatic Cathepsin D (Cat D) FRET assay; assay type: biochemical; conditions: read-out: CatD IC50
Sequence (P07339 65-412, species assumed): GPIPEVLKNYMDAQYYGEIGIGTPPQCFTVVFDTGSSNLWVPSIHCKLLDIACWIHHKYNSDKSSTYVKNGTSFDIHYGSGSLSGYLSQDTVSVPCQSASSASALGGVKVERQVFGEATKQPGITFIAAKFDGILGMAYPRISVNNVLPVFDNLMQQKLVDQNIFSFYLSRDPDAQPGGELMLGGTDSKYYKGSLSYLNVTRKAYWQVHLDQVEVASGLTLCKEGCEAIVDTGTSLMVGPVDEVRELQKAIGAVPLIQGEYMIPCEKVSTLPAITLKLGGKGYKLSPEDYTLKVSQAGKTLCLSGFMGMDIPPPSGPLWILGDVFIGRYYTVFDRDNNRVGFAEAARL
METRIC_NAME: IC50

Memo: CC1(C)C(N)=N[C@](CF)(c2cc(Nc3nccc4nc(C(F)(F)F)cnc34)ccc2F)CS1(=O)=O , reported IC50: > 14.8 µM

Memo: CC1(C)C(N)=N[C@](C)(c2cc(Nc3ncc(C#C[Si](C)(C)C)c4cc(Cl)cnc34)ccc2F)CS1(=O)=O , reported IC50: > 4.94 µM

Memo: CC1(C)C(N)=N[C@](C)(c2cc(Nc3ncnc4cc(C#N)cnc34)ccc2F)C(F)S1(=O)=O (stereo partly drawn) , reported IC50: 80.7 µM

====

molecular target: Beta Secretase enzyme (BACE1) (Homo sapiens, UniProt P56817); assay: In vitro enzymatic BACE FRET assay; assay type: biochemical; conditions: average IC50, enzyme assay; read-out: BACE1 FRET assay IC50
Sequence (P56817 46-501): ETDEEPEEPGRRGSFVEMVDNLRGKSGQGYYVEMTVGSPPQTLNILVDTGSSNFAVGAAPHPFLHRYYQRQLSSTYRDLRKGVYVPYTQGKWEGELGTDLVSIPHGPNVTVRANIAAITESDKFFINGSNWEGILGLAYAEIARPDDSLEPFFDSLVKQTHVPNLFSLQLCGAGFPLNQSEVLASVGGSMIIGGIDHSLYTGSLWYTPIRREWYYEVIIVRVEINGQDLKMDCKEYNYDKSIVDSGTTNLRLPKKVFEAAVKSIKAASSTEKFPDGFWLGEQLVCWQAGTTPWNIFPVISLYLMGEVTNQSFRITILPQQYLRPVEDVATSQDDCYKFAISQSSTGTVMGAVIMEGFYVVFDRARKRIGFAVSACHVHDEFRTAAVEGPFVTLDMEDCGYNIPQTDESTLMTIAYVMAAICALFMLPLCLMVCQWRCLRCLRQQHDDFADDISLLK
METRIC_NAME: IC50 (nM)
Note: unit nM is implicit; provide only the numeric part.

Memo: CC1(C)C(N)=N[C@](C)(c2cc(Nc3nccc4nc(C(F)(F)F)cnc34)ccc2F)C(F)S1(=O)=O (stereo partly shown) [Example 227] , reported IC50: 6.59

Memo: Cc1cc(OC(F)F)cnc1C(=O)Nc1ccc(F)c([C@]2(C)CS(=O)(=O)[C@@](C)(F)C(N)=N2)c1 [Example 321] , reported IC50: 0.72

Memo: C[C@]1(F)C(N)=N[C@](C)(c2cc(NC(=O)c3cnc(C(F)(F)F)cn3)ccc2F)CS1(=O)=O [Example 323] , reported IC50: 3.86

Memo: CC1(C)C(N)=N[C@](C)(c2cc(Oc3ncc(C(F)(F)F)cc3F)ccc2F)CS1(=O)=O [Example 277] , reported IC50: 1210

Where do the numbers come from? From patent US20140107109A1.
